Target: GABA-A receptor; anion channel (Homo sapiens) (UniProt P14867+P47870+P18507+P28472+P48169+Q99928+Q9UN88+P34903+O00591+O14764+Q8N1C3+P18505+P78334+P47869+P31644+Q16445)
Test: Displacement of [3H]muscimol form GABAA receptor in rat cerebral cortex assessed as specific radio-ligand binding level at 1 uM incubated for 10 mins by liquid scintillation counting method
Format: tissue-based
Settings: target entry is the homologue from another species
Decision: Activity >= 2% yields Satisfied, all other cases yield Not satisfied.

For orientation, consider the following solved cases.
CCCCCCCCCn1c(Cc2cccc(Cl)c2)n[nH]c1=S: Not satisfied
CCCCCn1c(-c2cccc(Cl)c2Cl)n[nH]c1=S: Not satisfied
CCCCCCCCCCCCn1c(Cc2cccc(Cl)c2)n[nH]c1=S: Not satisfied

Qu. Given the entry "CCCCCn1c(Cc2cccc(Cl)c2)n[nH]c1=S" , answer whether its Activity meets or surpasses 2%.
Ans. Satisfied

Qu. Given the entry "CCCCn1c(-c2cccc(Cl)c2Cl)n[nH]c1=S" , answer whether its Activity meets or surpasses 2%.
Ans. Satisfied

Qu. Given the entry "CCCCCCn1c(Cc2cccc(Cl)c2)n[nH]c1=S" , answer whether its Activity meets or surpasses 2%.
Ans. Satisfied

Qu. Given the entry "CCn1c(-c2cccc(Cl)c2Cl)n[nH]c1=S" , answer whether its Activity meets or surpasses 2%.
Ans. Satisfied

---

Target: GABA-A receptor; anion channel (Homo sapiens) (UniProt P14867+P47870+P18507+P28472+P48169+Q99928+Q9UN88+P34903+O00591+O14764+Q8N1C3+P18505+P78334+P47869+P31644+Q16445)
Assay: Displacement of [3H]muscimol form GABAA receptor in rat cerebral cortex assessed as specific radio-ligand binding level at 1 uM incubated for 10 mins by liquid scintillation counting method
Format: tissue-based
Conditions: target entry is the homologue from another species
For each record, check the reported Activity: if it is below 10% write Satisfied, else write Not satisfied.

CCCCCCCCCCn1c(Cc2cccc(Cl)c2)n[nH]c1=S: Not satisfied
CCCCCCCn1c(Cc2cccc(Cl)c2)n[nH]c1=S: Satisfied
CCCCCCCn1c(-c2cccc(Cl)c2Cl)n[nH]c1=S: Satisfied

Qu. Dear reviewer, please state whether "CCn1c(Cc2cccc(Cl)c2)n[nH]c1=S" has Activity strictly beneath 10%.
Ans. Satisfied

Qu. Dear reviewer, please state whether "CCCCn1c(Cc2cccc(Cl)c2)n[nH]c1=S" has Activity strictly beneath 10%.
Ans. Not satisfied

Qu. Dear reviewer, please state whether "NCCCC(=O)O" has Activity strictly beneath 10%.
Ans. Not satisfied

Qu. Dear reviewer, please state whether "CCCCCCCCn1c(Cc2cccc(Cl)c2)n[nH]c1=S" has Activity strictly beneath 10%.
Ans. Satisfied

---

Experiment: Toxicity in Swiss mouse assessed as effect on motor performance administered intraperitoneally 60 mins before test by Chimney test
Assay type: organism-based
Conditions: in vivo, ip
Field: TD50 at 1 h. Provide a value for each of the compounds that follow.
Give bare numbers, in mg/kg.

CCCCCCCCn1c(Cc2cccc(Cl)c2)n[nH]c1=S: 436

Batch: TD50 at 1 h for all items listed.
1. CCCCCn1c(Cc2cccc(Cl)c2)n[nH]c1=S
2. CCCCCCCCCn1c(Cc2cccc(Cl)c2)n[nH]c1=S
3. CCCCCCCn1c(Cc2cccc(Cl)c2)n[nH]c1=S
4. CCCCn1c(Cc2cccc(Cl)c2)n[nH]c1=S
5. CCCCCn1c(-c2cccc(Cl)c2Cl)n[nH]c1=S
6. CCn1c(Cc2cccc(Cl)c2)n[nH]c1=S

Ans.
[329, 493, 519, 298, 348, 290]

Qu. Dear colleague, I am looking for the recorded TD50 at 1 h of the following compound: "CCCCCCn1c(Cc2cccc(Cl)c2)n[nH]c1=S"
Ans. 541

---

Species: Rattus norvegicus
Assay: Displacement of [3H]flunitrazepam form benzodiazepine receptor in rat cerebral cortex assessed as specific radio-ligand binding level at 1 uM incubated for 20 mins by liquid scintillation counting method
Format: tissue-based
Field: Activity. Provide a value for each of the compounds that follow.
One number for each entry, in %.

CCCCCCCCCCCCn1c(Cc2cccc(Cl)c2)n[nH]c1=S: 12
CCCCCCCCn1c(Cc2cccc(Cl)c2)n[nH]c1=S: 0
CCCCCCCn1c(-c2cccc(Cl)c2Cl)n[nH]c1=S: 8

Batch: Activity for all items listed.
1. CCCCCn1c(-c2cccc(Cl)c2Cl)n[nH]c1=S
2. CCCCn1c(-c2cccc(Cl)c2Cl)n[nH]c1=S
3. CCCCCCCCCCn1c(Cc2cccc(Cl)c2)n[nH]c1=S
4. CCCCCCCCCn1c(Cc2cccc(Cl)c2)n[nH]c1=S
5. CCCCCn1c(Cc2cccc(Cl)c2)n[nH]c1=S
6. CCCCCCn1c(-c2cccc(Cl)c2Cl)n[nH]c1=S
7. CCCCCCCn1c(Cc2cccc(Cl)c2)n[nH]c1=S

Ans.
1: 18; 2: 14; 3: 12; 4: 0; 5: 14; 6: 10; 7: 1

Batch: Activity for all items listed.
1. Cc1ccc(-c2nc3ccc(C)cn3c2CC(=O)N(C)C)cc1
2. CCn1c(Cc2cccc(Cl)c2)n[nH]c1=S
3. CCn1c(-c2cccc(Cl)c2Cl)n[nH]c1=S

Ans.
73
15
5

Batch: Activity for all items listed.
1. CCCCCCn1c(Cc2cccc(Cl)c2)n[nH]c1=S
2. CN1C(=O)CN=C(c2ccccc2)c2cc(Cl)ccc21
3. CCCCn1c(Cc2cccc(Cl)c2)n[nH]c1=S

Ans.
1. 1
2. 83
3. 0

---

System: Mus musculus
Experiment: Anticonvulsant activity in Swiss mouse assessed as protection against seizures administered intraperitoneally 60 mins before test by maximal electroshock seizure test
Type: functional
Settings: ip
For each record, check the reported ED50: if it is below 80 mg/kg write T, else write F.

CCCCCCn1c(Cc2cccc(Cl)c2)n[nH]c1=S: F
CCCCCCCCCn1c(Cc2cccc(Cl)c2)n[nH]c1=S: F
CCCCn1c(Cc2cccc(Cl)c2)n[nH]c1=S: T

Qu. Dear reviewer, please state whether "CCn1c(Cc2cccc(Cl)c2)n[nH]c1=S" has ED50 strictly beneath 80 mg/kg.
Ans. T

Qu. Dear reviewer, please state whether "CCCCCCCn1c(Cc2cccc(Cl)c2)n[nH]c1=S" has ED50 strictly beneath 80 mg/kg.
Ans. T

Qu. Dear reviewer, please state whether "CCCCCn1c(Cc2cccc(Cl)c2)n[nH]c1=S" has ED50 strictly beneath 80 mg/kg.
Ans. T

Qu. Dear reviewer, please state whether "CCCCCn1c(-c2cccc(Cl)c2Cl)n[nH]c1=S" has ED50 strictly beneath 80 mg/kg.
Ans. F

Qu. Dear reviewer, please state whether "CCCCCCCCn1c(Cc2cccc(Cl)c2)n[nH]c1=S" has ED50 strictly beneath 80 mg/kg.
Ans. F

---

Test: Protective index, ratio of TD50 in ip Swiss mouse dosed intraperitoneally 15 mins before test by Chimney test to anticonvulsant ED50 in Swiss mouse dosed intraperitoneally 15 mins before test by MES test
Assay type: ADME, organism-based
Conditions: in vivo, read-out: Ratio TD50/ED50
Field: selectivity ratio at 0.25 h. Provide a value for each of the compounds that follow.
Answers are plain numbers.

Some solved entries appear below for comparison.
CCCCCCCCn1c(Cc2cccc(Cl)c2)n[nH]c1=S: 2.4
CCCCCCCn1c(Cc2cccc(Cl)c2)n[nH]c1=S: 10.2
CCn1c(Cc2cccc(Cl)c2)n[nH]c1=S: 5.8
CCCCCCCCCn1c(Cc2cccc(Cl)c2)n[nH]c1=S: 2.5

Batch: selectivity ratio at 0.25 h for all items listed.
1. CCCCCn1c(-c2cccc(Cl)c2Cl)n[nH]c1=S
2. CCCCn1c(Cc2cccc(Cl)c2)n[nH]c1=S

Ans.
1: 1.2; 2: 7.3

Qu. Dear colleague, I am looking for the recorded selectivity ratio at 0.25 h of the following compound: "CCCCCn1c(Cc2cccc(Cl)c2)n[nH]c1=S"
Ans. 7.6

---

Test: Protective index, ratio of TD50 in ip Swiss mouse dosed intraperitoneally 120 mins before test by Chimney test to anticonvulsant ED50 in Swiss mouse dosed intraperitoneally 120 mins before test by MES test
Assay type: ADME, organism-based
Conditions: in vivo, read-out: Ratio TD50/ED50
For each record, check the reported selectivity ratio at 2 h: if it is below 4 write Condition met, else write Condition not met.

CCCCCCCn1c(Cc2cccc(Cl)c2)n[nH]c1=S: Condition not met

Turning to the following molecule.
Qu. Dear reviewer, please state whether "CCCCn1c(Cc2cccc(Cl)c2)n[nH]c1=S" has selectivity ratio at 2 h strictly beneath 4.
Ans. Condition met

---

Experiment: Protective index, ratio of TD50 in ip Swiss mouse dosed intraperitoneally 60 mins before test by Chimney test to anticonvulsant ED50 in Swiss mouse dosed intraperitoneally 60 mins before test by MES test
Format: ADME, organism-based
Settings: in vivo, read-out: Ratio TD50/ED50
For each record, check the reported selectivity ratio at 1 h: if it is below 5 write 1, else write -1.

For orientation, consider the following solved cases.
CCn1c(Cc2cccc(Cl)c2)n[nH]c1=S: 1
CCCCCn1c(Cc2cccc(Cl)c2)n[nH]c1=S: 1
CCCCCCn1c(Cc2cccc(Cl)c2)n[nH]c1=S: -1
CCCCCCCn1c(Cc2cccc(Cl)c2)n[nH]c1=S: -1
CCCCCCCCCn1c(Cc2cccc(Cl)c2)n[nH]c1=S: -1

Qu. Dear reviewer, please state whether "CCCCCCCCn1c(Cc2cccc(Cl)c2)n[nH]c1=S" has selectivity ratio at 1 h strictly beneath 5.
Ans. 1

Qu. Dear reviewer, please state whether "CCCCn1c(Cc2cccc(Cl)c2)n[nH]c1=S" has selectivity ratio at 1 h strictly beneath 5.
Ans. 1

Qu. Dear reviewer, please state whether "CCCCCn1c(-c2cccc(Cl)c2Cl)n[nH]c1=S" has selectivity ratio at 1 h strictly beneath 5.
Ans. 1
